These measurements were taken from paper PMC8162404.

Biological target: S100B (Homo sapiens, UniProt P04271)
Construct: made in house; host or cells: Escherichia coli BL21(DE3)
Sequence (P04271 1-92): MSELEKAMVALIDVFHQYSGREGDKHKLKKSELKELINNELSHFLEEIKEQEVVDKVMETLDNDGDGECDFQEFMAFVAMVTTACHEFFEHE
Experiment: Competition pull-down with native ligand RSK1 (689–735)
Format: binding
Conditions: H14 library; competitor peptide 200 µM; read-out: Surface mapping KD (apparent), competition
Below, each entry is listed alongside its reported Kd.
MEASURED METRIC: Kd (µM)

{"COMPOUND": "NCCCC[C@@H](CC(=O)N[C@H]1CCCC[C@@H]1C(N)=O)NC(=O)[C@H]1CCCC[C@@H]1NC(=O)[C@H]1CCCC[C@@H]1NC(=O)C[C@H](Cc1c[nH]c2ccccc12)NC(=O)[C@H]1CCCC[C@@H]1N [H14 WK]", "ASSAY TARGET": "S100B (Homo sapiens, UniProt P04271)", "MEASURED RESULT": 412}
{"COMPOUND": "CC(C)[C@@H](CC(=O)N[C@H]1CCCC[C@@H]1C(N)=O)NC(=O)[C@H]1CCCC[C@@H]1NC(=O)[C@H]1CCCC[C@@H]1NC(=O)C[C@H](C)NC(=O)[C@H]1CCCC[C@@H]1N [H14 AV]", "ASSAY TARGET": "S100B (Homo sapiens, UniProt P04271)", "MEASURED RESULT": 316}
{"COMPOUND": "NC(=O)[C@H]1CCCC[C@@H]1NC(=O)C[C@H](Cc1ccc(O)cc1)NC(=O)[C@H]1CCCC[C@@H]1NC(=O)[C@H]1CCCC[C@@H]1NC(=O)C[C@H](Cc1ccc(O)cc1)NC(=O)[C@H]1CCCC[C@@H]1N [H14 YY]", "ASSAY TARGET": "S100B (Homo sapiens, UniProt P04271)", "MEASURED RESULT": 393}
{"COMPOUND": "CC[C@H](C)[C@@H](CC(=O)N[C@H]1CCCC[C@@H]1C(N)=O)NC(=O)[C@H]1CCCC[C@@H]1NC(=O)[C@H]1CCCC[C@@H]1NC(=O)C[C@H](CCSC)NC(=O)[C@H]1CCCC[C@@H]1N [H14 MI]", "ASSAY TARGET": "S100B (Homo sapiens, UniProt P04271)", "MEASURED RESULT": 269}
{"COMPOUND": "CSCC[C@@H](CC(=O)N[C@H]1CCCC[C@@H]1C(=O)N[C@H]1CCCC[C@@H]1C(=O)N[C@@H](CO)CC(=O)N[C@H]1CCCC[C@@H]1C(N)=O)NC(=O)[C@H]1CCCC[C@@H]1N [H14 MS]", "ASSAY TARGET": "S100B (Homo sapiens, UniProt P04271)", "MEASURED RESULT": 391}
{"COMPOUND": "CC(C)[C@@H](CC(=O)N[C@H]1CCCC[C@@H]1C(=O)N[C@H]1CCCC[C@@H]1C(=O)N[C@@H](CC(N)=O)CC(=O)N[C@H]1CCCC[C@@H]1C(N)=O)NC(=O)[C@H]1CCCC[C@@H]1N [H14 VN]", "ASSAY TARGET": "S100B (Homo sapiens, UniProt P04271)", "MEASURED RESULT": 271}
{"COMPOUND": "CC(C)[C@@H](CC(=O)N[C@H]1CCCC[C@@H]1C(N)=O)NC(=O)[C@H]1CCCC[C@@H]1NC(=O)[C@H]1CCCC[C@@H]1NC(=O)C[C@@H](NC(=O)[C@H]1CCCC[C@@H]1N)C(C)C [H14 VV]", "ASSAY TARGET": "S100B (Homo sapiens, UniProt P04271)", "MEASURED RESULT": 198}
{"COMPOUND": "CC(C)C[C@@H](CC(=O)N[C@H]1CCCC[C@@H]1C(=O)N[C@H]1CCCC[C@@H]1C(=O)N[C@@H](CC(N)=O)CC(=O)N[C@H]1CCCC[C@@H]1C(N)=O)NC(=O)[C@H]1CCCC[C@@H]1N [H14 LN]", "ASSAY TARGET": "S100B (Homo sapiens, UniProt P04271)", "MEASURED RESULT": 254}
{"COMPOUND": "CC[C@H](C)[C@@H](CC(=O)N[C@H]1CCCC[C@@H]1C(N)=O)NC(=O)[C@H]1CCCC[C@@H]1NC(=O)[C@H]1CCCC[C@@H]1NC(=O)C[C@H](CC(C)C)NC(=O)[C@H]1CCCC[C@@H]1N [H14 LI]", "ASSAY TARGET": "S100B (Homo sapiens, UniProt P04271)", "MEASURED RESULT": 147}
